Experiment: Octanol/buffer distribution coefficient (logD)
Format: physicochemical
Conditions: pH 5.00, octanol/50 mM sodium citrate, 25 °C
Measurement Kind: logD at 24 h
One number for each entry.

Request: Look up and report measured logD at 24 h for this entry: COc1cc(CCNCc2ccccc2O)c(OC)cc1C#N [Compound 1, 25CN-NBOH]
Response: -0.76

* * *

Assay: Apparent pKa by spectrophotometric titration (inForm, Sirius)
Assay type: physicochemical
Settings: concentration-based, 30.8 °C, I = 0.172 M; read-out: apparent pKa (protonated amine)
Measurement Kind: pKa
One number for each entry.

Request: Look up and report measured pKa for this entry: COc1cc(CCNCc2ccccc2O)c(OC)cc1C#N [Compound 1, 25CN-NBOH]
Response: 8.4
